# Target system: human mu (MOR) opioid receptor (Homo sapiens (Human), UniProt P35372)
Reported endpoint: Ki (µM)
Please state the figure in µM; there is no need to write the unit.

QUERY: Recall the reported Ki of "COCCOCCOCCOCCOCCO[C@@H]1c2ccc(O)cc2[C@]2(C)CCN(CC3CC3)[C@H]1[C@@H]2C" on human mu (MOR) opioid receptor (Homo sapiens (Human), UniProt P35372) and write it down.
RESULT: 3.92

----------
Measured inhibition at 10 µM of individual entries
# Target system: human mu (MOR) opioid receptor (Homo sapiens (Human))
# Procedure summary: Radioligand competition binding assay, mu opioid receptor
# Test parameters: 10 uM, [3H]Naloxone; read-out: Mu receptor % inhibition at single concentration
Please state the figure in %; there is no need to write the unit.

Worked examples follow.
{"Compound": "COCCOCCOCCOc1ccc2c(c1)[C@]1(C)CCN(CC3CC3)[C@H](C2=O)[C@@H]1C [Example 4]", "Measurement": 89.2}
{"Compound": "COCCOCCOCCOCCOCCOCCOCCNc1ccc2c(c1)[C@]1(C)CCN(CC3CC3)[C@H](C2=O)[C@@H]1C [Example 3]", "Measurement": 80.6}
{"Compound": "COCCOCCOCCOCCOCCNc1ccc2c(c1)[C@]1(C)CCN(CC3CC3)[C@H](C2=O)[C@@H]1C [Example 2]", "Measurement": 85.5}

QUERY: Item COCCOCCOCCOCCOCCOCCOCCOc1ccc2c(c1)[C@]1(C)CCN(CC3CC3)[C@H](C2=O)[C@@H]1C [Example 6] : provide inhibition at 10 µM
RESULT: 48.6

QUERY: Item C[C@H]1[C@H]2C(=O)c3ccc(O)cc3[C@]1(C)CCN2CC1CC1 [Ketazocine, reference compound] : provide inhibition at 10 µM
RESULT: 99.2
